Tested on: PRKACA-PRKAR2A interaction (SmBiT-PRKACA / LgBiT-PRKAR2A), protein kinase A
Parameters: NanoLuc complementation counter-screen in cell extract, PRKACA with PRKAR2A, loss of luminescence, detects NanoLuc interference
condition summary: counter-screen for NanoLuc interference, 0.5 h, 20 µM, inhibitor, Inh (PKA)
Structures can show the parent of a compound that is named as a salt.
# Inh (PKA) values compiled below
The reply should contain only the number, in %.

These solved cases illustrate the format of a correct answer.
compound	test system	observed value
Cc1ccc(Nc2nccc(N(C)c3ccc4c(C)n(C)nc4c3)n2)cc1S(N)(=O)=O [UM0127957:02, Pazopanib (GW-786034)]	PRKACA-PRKAR2A interaction (SmBiT-PRKACA / LgBiT-PRKAR2A), protein kinase A	11.23
c1ccc2c(-c3cnn4cc(-c5ccc(N6CCNCC6)cc5)cnc34)ccnc2c1 [UM0141577:01, LDN193189 Hydrochloride]	PRKACA-PRKAR2A interaction (SmBiT-PRKACA / LgBiT-PRKAR2A), protein kinase A	9.112
COc1cc(Nc2ncc(F)c(Nc3ccc4c(n3)N(COP(=O)(O)O)C(=O)C(C)(C)O4)n2)cc(OC)c1OC [UM0142473:01, Fostamatinib (R788)]	PRKACA-PRKAR2A interaction (SmBiT-PRKACA / LgBiT-PRKAR2A), protein kinase A	53.12
CN1CCc2nc(C(=O)N[C@@H]3C[C@@H](C(=O)N(C)C)CC[C@@H]3NC(=O)C(=O)Nc3ccc(Cl)cn3)sc2C1 [UM0141546:01, Edoxaban tosylate monohydrate]	PRKACA-PRKAR2A interaction (SmBiT-PRKACA / LgBiT-PRKAR2A), protein kinase A	2.853
CC(C)Cc1ccc([C@@H](C)C(=O)NS(C)(=O)=O)cc1 [UM0141612:01, Reparixin]	PRKACA-PRKAR2A interaction (SmBiT-PRKACA / LgBiT-PRKAR2A), protein kinase A	5.153

Alright, here's another compound for you.
# input compound: CN1CCN(c2ccc3nc(-c4c(N)c5c(F)cccc5[nH]c4=O)[nH]c3c2)CC1 [UM0142034:01, Dovitinib Dilactic acid] ; wanted: its Inh (PKA)
16.9

###

System: PRKACA-PRKAR2A interaction (SmBiT-PRKACA / LgBiT-PRKAR2A), protein kinase A
Design: NanoLuc complementation counter-screen in cell extract, PRKACA with PRKAR2A, loss of luminescence, detects NanoLuc interference
condition summary: counter-screen for NanoLuc interference; 0.5 h, 20 µM; inhibitor
Counter-ions that a name gives are not always drawn.
reported property: Inh (PKA) (%)
The reply should contain only the number, in %.

These solved cases illustrate the format of a correct answer.
compound	measure unit	Inh (PKA)
CCCOc1ccc(CCc2nc3cc(-c4c(C)noc4C)ccc3n2CCN2CCOCC2)cc1	%	9.037
C[C@]12CC[C@H](O)CC1=CC[C@@H]1[C@@H]2CC[C@]2(C)C(n3cnc4ccccc43)=CC[C@@H]12	%	15.03
Cc1snnc1-c1ccccc1	%	0.1553
NC(=O)c1ccc(N(C(N)=O)c2c(F)cccc2F)nc1-c1ccc(F)cc1F	%	6.199

# input compound: "CCN1C[C@H](C)n2c(c(O)c3c(=O)n(Cc4ccc(F)c(Cl)c4)nc(C(=O)NC)c32)C1=O" ; wanted: its Inh (PKA)
3.571

Please do the same for "Oc1ccc(-c2nc(-c3ccc(F)cc3)c(-c3ccncc3)[nH]2)cc1" as well.
40.66

Please do the same for "O=C1NC(=O)/C(=C/c2ccc3nccc(-c4ccncc4)c3c2)S1" as well.
27.08

Please do the same for Clc1ccccc1CN1CCc2sccc2C1 [UM0118440:03, Ticlopidine HCl] as well.
23.02

###

test system: MeCP2-TBL1 interaction (MeCP2-SmBiT / TBL1-LgBiT) (Mus musculus)
Construct: expressed in transfected cells; crude lysate used as a cell-free assay
Sequence (Q9QXE7 166-527): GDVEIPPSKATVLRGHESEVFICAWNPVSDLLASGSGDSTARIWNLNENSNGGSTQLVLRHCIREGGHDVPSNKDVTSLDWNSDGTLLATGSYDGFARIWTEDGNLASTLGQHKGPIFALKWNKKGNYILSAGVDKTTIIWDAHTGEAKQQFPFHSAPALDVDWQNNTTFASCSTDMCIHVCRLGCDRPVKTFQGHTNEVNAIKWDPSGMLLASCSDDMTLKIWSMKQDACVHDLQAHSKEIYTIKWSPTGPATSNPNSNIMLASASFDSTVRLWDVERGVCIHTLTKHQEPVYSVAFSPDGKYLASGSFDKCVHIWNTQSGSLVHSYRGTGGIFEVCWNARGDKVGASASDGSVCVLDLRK
protocol summary: MeCP2-TBL1 NanoLuc luciferase complementation assay (cell-free, extracts of transfected HEK293 cells);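 note: each compound tested at 20 µM final concentration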
Format: binding, human
condition summary: primary screen of the Asinex library, sheet "Sargen output Asinex library", one well per compound
reported property: Inhibition percent
Kindly report the value followed by its unit.

compound	test system	Inhibition percent
CNc1nc(C2CCCCN2C(=O)CCNc2nc(C)cc(C)n2)nc2c1CCN(C(C)=O)C2 (stereo not shown)	MeCP2-TBL1 interaction (MeCP2-SmBiT / TBL1-LgBiT) (Mus musculus)	-0.36%
CN(CCC(=O)N1CCCC1c1cncc(Cc2cccc(Cl)c2)n1)Cc1cccnc1 (stereo not shown)	MeCP2-TBL1 interaction (MeCP2-SmBiT / TBL1-LgBiT) (Mus musculus)	-2.00%
Cc1ccc(CC(=O)N2CCCC(c3ncccc3C(=O)NCc3ccccc3)C2)cc1C (stereo not shown)	MeCP2-TBL1 interaction (MeCP2-SmBiT / TBL1-LgBiT) (Mus musculus)	-0.34%

# input compound: "O=C(NCCc1ccccc1)[C@@H]1[C@H](O)[C@@H](c2ccc(F)cc2)CN1C(=O)CCc1ccc(Cl)cc1" ; wanted: its Inhibition percent
2.58%

Please do the same for "C[C@]12C[C@@H]3N[C@H]1CCC[C@H]2N(C(=O)c1cccc(Cc2ccccc2F)n1)[C@H]3Cc1ccccc1" as well.
5.29%

Please do the same for "COc1ccc(C)c(NC(=O)CN2CC[C@@H]3[C@@H](c4ccccc4)N(C(C)=O)C[C@]3(NC(C)=O)C2)c1" as well.
-3.37%

Please do the same for "C[C@@]12C[C@H]3[C@H](Cc4ccccc4)N[C@@H]1CCCC[C@@H]2N3C(=O)c1ccnc(Cc2ccccc2)c1" as well.
3.55%

Please do the same for Cc1ccc(NC(=O)c2cccc(C3CCCN3C(=O)CCCN3Cc4ccccc4C3)n2)nc1 (stereo not shown) as well.
-0.70%

Please do the same for CC1(C(=O)N2CCOCC(Cc3ccc4cnccc4c3)C2)CCN(CCc2ccccc2)CC1 (stereo not shown) as well.
-0.71%

Please do the same for COc1ccc(C(=O)N2CCCC(Cc3cn4ccnc4cn3)CC2)cc1OCc1ccccn1 (stereo not shown) as well.
1.17%

###

# Inh (PKA) values compiled below
Tested on: PRKACA-PRKAR2A interaction (SmBiT-PRKACA / LgBiT-PRKAR2A), protein kinase A
Design: NanoLuc complementation counter-screen in cell extract, PRKACA with PRKAR2A, loss of luminescence, detects NanoLuc interference
condition summary: counter-screen for NanoLuc interference; 0.5 h, 20 µM; inhibitor
The reply should contain only the number, in %.

Return Inh (PKA) measured with PRKACA-PRKAR2A interaction (SmBiT-PRKACA / LgBiT-PRKAR2A), protein kinase A given this compound: "CNC(=O)[C@H](Cc1c[nH]c2ccccc12)NC(=O)[C@@H](CC(=O)NO)CC(C)C"
-1.568

Please do the same for CC(C(=O)O)c1ccc2c(c1)[nH]c1ccc(Cl)cc12 (stereo not shown) as well.
82.74

Please do the same for "Cc1[nH]c(=O)c(C#N)cc1-c1ccncc1" as well.
-0.01503

Please do the same for "CN(C)C/C=C/C(=O)Nc1ccc(C(=O)Nc2cccc(Nc3ncc(Cl)c(-c4c[nH]c5ccccc45)n3)c2)cc1" as well.
81.51

Please do the same for "Cc1c(NC(=O)OC[C@@H]2COCCN2)cn2ncnc(Nc3ccc4c(cnn4Cc4cccc(F)c4)c3)c12" as well.
24.24

Please do the same for "Cn1sc(=O)n(Cc2ccccc2)c1=O" as well.
41.7

Please do the same for C[C@H]1CO[C@@H]2Cn3cc(C(=O)NCc4ccc(F)cc4F)c(=O)c(O)c3C(=O)N12 [UM0142091:01, GSK744 (S/GSK1265744)] as well.
7.532

###

# Inh (PKA) values compiled below
Tested on: PRKACA-PRKAR2A interaction (SmBiT-PRKACA / LgBiT-PRKAR2A), protein kinase A
Design: NanoLuc complementation counter-screen in cell extract, PRKACA with PRKAR2A, loss of luminescence, detects NanoLuc interference
condition summary: counter-screen for NanoLuc interference; 0.5 h, 20 µM; inhibitor

molecule	Inh (PKA)
Cc1c(OCC(F)(F)F)ccnc1C[S+]([O-])c1nc2ccccc2[nH]1 (stereo not drawn)	1.885%
CCC(Sc1nnc2c(n1)[nH]c1ccccc12)C(=O)N1c2ccccc2Sc2ccccc21 (stereo not drawn)	40.51%

Alright, here's another molecule for you.
# input molecule: "CC[C@H]1OC(=O)[C@H](C)[C@@H](O[C@H]2C[C@@](C)(OC)[C@@H](O)[C@H](C)O2)[C@H](C)[C@@H](O[C@@H]2O[C@H](C)C[C@H](N(C)C)[C@H]2O)[C@](C)(O)C[C@@H](C)CN(C)[C@H](C)[C@@H](O)[C@]1(C)O" ; wanted: its Inh (PKA)
0.6112%

src = paper PMC9995496
